residual activity values, listed per item
Molecular target: CaMK1 (human) (UniProt Q14012)
Sequence (Q14012 whole entry, looked up): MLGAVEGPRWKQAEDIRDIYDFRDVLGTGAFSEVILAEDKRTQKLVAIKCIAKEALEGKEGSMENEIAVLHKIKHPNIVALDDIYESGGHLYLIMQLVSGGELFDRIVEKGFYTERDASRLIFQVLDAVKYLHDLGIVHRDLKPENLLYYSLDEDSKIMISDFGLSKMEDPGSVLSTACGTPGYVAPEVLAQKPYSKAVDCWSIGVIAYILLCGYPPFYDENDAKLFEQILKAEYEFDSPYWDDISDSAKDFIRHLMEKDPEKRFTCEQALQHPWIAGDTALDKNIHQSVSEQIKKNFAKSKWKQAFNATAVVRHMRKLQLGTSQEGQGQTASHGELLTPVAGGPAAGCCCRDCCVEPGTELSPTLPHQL
Experiment: radiometric filter-binding kinase assay
Conditions: compound 10.0 µM

{"columns": ["compound", "unit.info", "residual activity"],
 "data": [
  ["Oc1ccc(/C=C/c2cc(O)cc(O)c2)cc1", "%", 73],
  ["C=CC(=O)N1CCC[C@@H](n2nc(-c3ccc(Oc4ccccc4)cc3)c3c(N)ncnc32)C1", "%", 33],
  ["Oc1ccc2ccccc2c1SSc1c(O)ccc2ccccc12", "%", 7],
  ["O=C(NOCC(O)CO)c1ccc(F)c(F)c1Nc1ccc(I)cc1Cl (configuration not stated)", "%", 84],
  ["O=C(Nc1ccccc1-c1cn2c(CN3CCNCC3)csc2n1)c1cnc2ccccc2n1", "%", 22],
  ["N#Cc1c(O)c2c(-c3ccc(-c4ccccc4O)cc3)csc2[nH]c1=O", "%", 68],
  ["CN1C(=O)[C@@H](Cc2c[nH]c3ccccc23)NC1=S", "%", 94],
  ["NS(=O)(=O)OC[C@@H]1C[C@@H](n2ccc3c(N[C@H]4CCc5ccccc54)ncnc32)C[C@@H]1O", "%", 110],
  ["NC(=O)c1ccc(-c2ccc(Oc3cncc4sc(-c5nn[nH]n5)cc34)cc2)cc1", "%", 85],
  ["O=C1Nc2nc(-c3c(O)cccc3OCC3CC3)cc(C3CCCNC3)c2CO1 (configuration not stated)", "%", 13],
  ["NC1(c2ccc(-c3nc4ccn5c(=O)[nH]nc5c4cc3-c3ccccc3)cc2)CCC1", "%", 35],
  ["O=C1NC(=S)N[C@@H]1Cc1c[nH]c2ccccc12", "%", 104],
  ["NC(=O)c1cc2c(-c3cccc(-c4ccccc4)c3)cnc(N)c2s1", "%", 38],
  ["Cc1ccc(=O)n(-c2ccccc2)c1", "%", 81],
  ["CCc1cncnc1N1CCN(Cc2nc3cc(C(F)(F)F)ccc3[nH]2)CC1", "%", 78],
  ["COC(=O)/C=C/C(=O)OC", "%", 88],
  ["NC(=O)Nc1ccc2c(c1)/C(=C/c1cc(-c3cccnc3)c[nH]1)C(=O)N2", "%", 19],
  ["CCOC(=O)c1ccc(N2NC(=O)/C(=C/c3ccc([N+](=O)[O-])o3)C2=O)cc1", "%", 102],
  ["O=C(O)c1ccc(-c2c[nH]c3ncc(-c4ccccc4)cc23)cc1C1CCCC1", "%", 80],
  ["c1ccc2c(-c3cnn4cc(-c5ccc(N6CCNCC6)cc5)cnc34)ccnc2c1", "%", 45],
  ["NCC(=O)Nc1ccc(-n2nc(C(F)(F)F)cc2-c2ccc3c(ccc4ccccc43)c2)cc1", "%", 21],
  ["CCNc1nc(Nc2cc(F)c(C(=O)N3CCOCC3)cc2OC)ncc1C(F)(F)F", "%", 27]
]}

====

residual activity values, listed per item
Biological target: PLK1 (human)
Experiment: radiometric filter-binding kinase assay
Details: compound 10.0 µM

{"columns": ["molecular.string", "residual activity, %"],
 "data": [
  ["O=C(O)c1ccc(-c2c[nH]c3ncc(-c4ccccc4)cc23)cc1C1CCCC1", 5],
  ["NC(=O)c1cc(-c2ccnc(NC3CCCCC3)c2)nc(N2CCNCC2)c1", 111],
  ["NCC(=O)Nc1ccc(-n2nc(C(F)(F)F)cc2-c2ccc3c(ccc4ccccc43)c2)cc1", 111],
  ["Cc1ccc2c(c1)C(=O)[C@@]1(O)CCN(c3ccccc3)C1=N2", 99],
  ["O=C(Nc1ccccc1-c1cn2c(CN3CCNCC3)csc2n1)c1cnc2ccccc2n1", 104],
  ["COc1cc2ncn(-c3cc(OCc4ccccc4S(C)(=O)=O)c(C#N)s3)c2cc1OC", 55],
  ["N#Cc1c(O)c2c(-c3ccc(-c4ccccc4O)cc3)csc2[nH]c1=O", 88],
  ["COc1cc(C(=O)N2CCOCC2)c(F)cc1Nc1ncc(C(F)(F)F)c(NC2CC2)n1", 40],
  ["COC(=O)/C=C/C(=O)OC", 94],
  ["C=CC(=O)N1CCC[C@@H](n2nc(-c3ccc(Oc4ccccc4)cc3)c3c(N)ncnc32)C1", 76]
]}
